# Protocol Summary: GST conjugation of chlorimuron ethyl with glutathione (HPLC)
# Type: biochemical
# Test Conditions: purified enzyme, 0.4 mM electrophilic substrate, 4 mM glutathione, 0.1 M MOPS pH 7.0
The entries below are paired with their reported activity of enzyme with Chlorimuron-Ethyl.
Numeric answer only, unit nmol/min/mg assumed.

As a guide, the following entries are already answered.
m.15.5.d06.sk20: maize class II GST enzyme encoded by cDNA clone, expressed in E. coli (protein) MAEVEATVGRLMLYSYWRSSCSHRARIALNLKGVDYEYKAVNLLKGEQSDPEFVKLNPMKFVPALVDGSSVIGDSYAITLYLEDKYPEPPLLPQDLQKKALNHQIASIVASGIQPLHNLTVLRFIDQKVGAGESVLWTQQQIERGFTAIENLIQLKGCAGKYATGDEVQLADVFLAPQIYAAIERTKIDMSNYLTLARLHSEYMSHPAFEAALPGKQPDAPSSS : 0.1
ceb5.pk0051.f8: maize class III GST enzyme encoded by cDNA clone, expressed in E. coli (protein) MAGETKKGLVLLDFWVSPFGQRCRIALAEKGIAYEYSEQELLGGAKSDILLRSNPVHKKIPVLLHDGRPVCESLVILEYLEEAFPEASPRLLPDAAYARAQARFWAAYSDKVYKAGTRLWKLRGDARAQARAEIVQVVRNLDGELGDKAFFGGEAFGFVDVALVPFVPWLPSYERYGDFSVAEIAPRLAAWARRCAQRESVARTLHPPEKVDEFINLLKKTYGIE : 1.9
bms1.pk0023.g8: maize class I GST enzyme encoded by cDNA clone, expressed in E. coli (protein) MAPPMKVYGWAVSPWMARALVCLEEAGADYEIVPMSRCGGDHRRPEHLAKNPFGEIPVLEDGDLTLYQSRAIARYVLRKLKPELLREGDLEGSAMVDAWMEVEAHHMEPALWPIIRHSIIGQYVGRERDHQAVIDENLDRLRKVLPAYEARLSVCKYLVGDDISAADLCHFGFMRYFMATEYAGLVDAYPHVKAWWDALLARPSVQKVMAGMPPDFGYASGNIP : 0.2
cs1.pk0010.c5: maize class I GST enzyme encoded by cDNA clone, expressed in E. coli (protein) MAAGLQVFGQPASTDVARVLTCLFEKKLEFELVRIDTFKTHHRLPEFIRLRDPNGQVTFKHGDKTLVDSRDICRYVCNQFPNYGNKSLYGSGALERASIEQWLQAEAQNFGPPSSALVFQLAFVPHLSHLGVRQDPAVIAENEDKLKQVLDVYDEILSKNEYLAGDEFTLADLSHLPNSHYIVNTERGRKLFTNKKNVAKWYDRLSKRETWVQVVKMQKEHPGAFK : 0.1
ceb1.pk0017.a5: maize class I GST enzyme encoded by cDNA clone, expressed in E. coli (protein) MAAPVTVYGPMLSPAVARVAACLLEKDVPFQIEPVDMSKGEHKSPSFLKLQPFGQVPAFKDHLTTVFESRAICRYICDQYADSGNQALFGKKEDGAVGRAAIEQWIESEGQSFNPPSLAIIFQLAFAPMMGRTTDLAVVEQNEAKLAKVLDVYDQRLGESQYFAGDDFSPGRPCALAQCRFPCEQNQQGWLDHREKESC : 0.1

Consider the additional molecule presented here.
Per the records, this molecule ( ceb5.pk0049.a11: maize class III GST enzyme encoded by cDNA clone, expressed in E. coli (protein) MAEEKKQGLQLLDFWVSPFGQRCRIALDEKGLAYEYLEQDLRNKSELLLRANPVHKKIPVLLHDGRPVCESLVIVQYLDEAFPEAAPALLPADPYARAQARFWADYVDKKLYDCGTRLWKLKGDGQAQARAEMVEILRTLEGALGDGPFFGGDALGFVDVALVPFTSWFLAYDRFGGVSVEKECPRLAAWAKRCAERPSVAKNLYPPEKVYDFVCGMKKRLGIE ) has activity of enzyme with Chlorimuron-Ethyl equal to 0.4
